The values you see were collected from patent US11358962B2.

test system: native tau aggregates; assay: TAU radioligand in vitro displacement assay ([3H]T808, autoradiography on human AD brain sections); type: binding; conditions: compound 10 nM, radioligand [3H]T808 10 nM
Threshold check on % displacement of [3H]T808 (10 nM) at 10 nM: strictly below 30% is true; on or above 30% is false.

# mol smiles, assigned label
measured = [
    ("CN(C)c1ccn2cc(-c3ccccc3)nc2c1", "false"),
    ("CO[C@H]1CCN(c2ccn3cc(-c4ccc(C)cc4)nc3c2)C1", "false"),
    ("COc1cccc(-c2cn3ccc(N4CCCC4)cc3n2)c1", "false"),
    ("CNc1ccn2cc(-c3ccc4c(c3)OCO4)nc2c1", "false"),
    ("FCCOc1ccc(-c2cn3ccc(N4CCC4)cc3n2)cc1", "false"),
    ("CNc1ccn2cc(-c3ccc(C)cc3)nc2c1", "false"),
    ("CNc1ccn2cc(-c3cccc(C(=O)OC)c3)nc2c1", "true"),
    ("CNc1ccn2cc(-c3ccc(C)c(C)c3)nc2c1", "true"),
    ("CNc1ccn2cc(-c3cc(C)ccc3O)nc2c1", "false"),
    ("FCCNc1ccn2cc(-c3ccc(N4CCOCC4)cc3)nc2c1", "true"),
    ("CC(=O)O.CNc1ccn2cc(-c3ccc(N4CCCC4)cc3)nc2c1", "true"),
    ("CN(C)c1ccc(-c2cn3ccc(N4CCC(F)CC4)cc3n2)cc1", "true"),
    ("CNc1ccn2cc(-c3ccc(OC)cc3)nc2c1", "false"),
    ("FCCC1CCN(c2ccn3cc(-c4ccc5c(c4)OCCO5)nc3c2)CC1", "true"),
    ("F[C@@H]1CCN(c2ccn3cc(-c4ccccc4)nc3c2)C1", "true"),
    ("CN(CCF)c1ccn2cc(-c3ccc4c(c3)OCCO4)nc2c1", "true"),
    ("FCOc1ccc(-c2cn3ccc(N4CCOCC4)cc3n2)cc1", "true"),
    ("FCCCOc1ccc(-c2cn3ccc(NC4CC4)cc3n2)cc1", "true"),
    ("COc1ccc(-c2cn3ccc(NC4CC4)cc3n2)cc1", "false"),
    ("CNc1ccn2cc(-c3ccc(O)c(OC)c3)nc2c1", "false"),
    ("CNc1ccn2cc(-c3ccc(OC(F)F)cc3)nc2c1", "false"),
    ("FCCNc1ccn2cc(-c3ccc4c(c3)OCCO4)nc2c1", "true"),
    ("FCCC1CCN(c2ccn3cc(-c4ccccc4)nc3c2)CC1", "true"),
    ("COc1ccc(-c2cn3ccc(NCCCF)cc3n2)cc1", "false"),
    ("CNc1ccn2cc(-c3ccc(OCF)cc3)nc2c1", "false"),
    ("FCOc1ccc(-c2cn3ccc(N4CCC4)cc3n2)cc1", "false"),
    ("Cc1ccc(-c2cn3ccc(N(C)C)cc3n2)cc1C", "true"),
    ("CCc1ccc(-c2cn3ccc(NC)cc3n2)cc1", "false"),
    ("COc1cccc(-c2cn3ccc(NCCF)cc3n2)c1", "false"),
    ("COc1cccc(-c2cn3ccc(N4CCCCC4)cc3n2)c1", "true"),
    ("CNc1ccn2cc(-c3ccc(NCCF)cc3)nc2c1", "false"),
    ("CNc1ccn2cc(-c3ccc4c(c3)OCCO4)nc2c1", "false"),
    ("CNc1ccn2cc(-c3ccc(N4CCOCC4)cc3)nc2c1", "false"),
    ("FC1CCN(c2ccn3cc(-c4ccc5c(c4)OCO5)nc3c2)CC1", "true"),
    ("COc1cccc(-c2cn3ccc(N4CCOCC4)cc3n2)c1", "true"),
    ("FCCNc1ccn2cc(-c3ccco3)nc2c1", "true"),
    ("COc1ccc(-c2cn3ccc(N(C)CCF)cc3n2)cc1", "true"),
    ("COc1ccc(-c2cn3ccc(NCCF)cc3n2)cc1", "false"),
    ("CNc1ccn2cc(-c3nccs3)nc2c1", "true"),
    ("Cc1cccc(-c2cn3ccc(NCCF)cc3n2)c1", "false"),
]

----------
Below, each entry is listed with its recorded % displacement of [3H]T808 (10 nM) at 10 nM.
system: native tau aggregates; assay: TAU radioligand in vitro displacement assay ([3H]T808, autoradiography on human AD brain sections); assay type: binding; settings: compound 10 nM, radioligand [3H]T808 10 nM
endpoint label: % displacement of [3H]T808 (10 nM) at 10 nM (%)

# compound, recorded number
records = [
    ("FCOc1ccc(-c2cn3ccc(NC4CC4)cc3n2)cc1 [Example 80]", 34),
    ("Cc1cccc(-c2cn3ccc(N(C)C)cc3n2)c1 [Example 26]", 53),
    ("CNc1ccn2cc(-c3cc(OC)cc(OC)c3)nc2c1 [Example 92]", 25),
    ("FCCOc1cccc(-c2cn3ccc(N4CCC4)cc3n2)c1 [Example 140]", 23),
    ("CNc1ccn2cc(-c3cnn(C)c3)nc2c1 [Example 129]", 50),
    ("CO[C@@H]1CCN(c2ccn3cc(-c4cccc(C)c4)nc3c2)C1 [Example 86]", 33),
    ("COc1cccc(-c2cn3ccc(N(C)C)cc3n2)c1 [Example 32]", 36),
    ("Oc1cccc(-c2cn3ccc(NCCF)cc3n2)c1 [Example 146]", 33),
    ("CNc1ccn2cc(-c3ccc(N4CCCCC4)cc3)nc2c1 [Example 118]", 20),
    ("COc1ccc(-c2cn3ccc(N4CCC(CCF)CC4)cc3n2)cc1 [Example 77]", 27),
]

----------
tested on: native tau aggregates; assay: TAU radioligand in vitro displacement assay ([3H]T808, autoradiography on human AD brain sections); format: binding; details: compound 10 nM, radioligand [3H]T808 10 nM
endpoint label: % displacement of [3H]T808 (10 nM) at 10 nM (%)

# compound, display unit, recorded number
rows = [
    ("COc1cccc(-c2cn3ccc(N4CCC(F)CC4)cc3n2)c1 [Example 60]", "%", 14),
    ("CNc1ccn2cc(-c3cccc(CO)c3)nc2c1 [Example 123]", "%", 23),
    ("CNc1ccn2cc(-c3ccccc3O)nc2c1 [Example 120]", "%", 20),
    ("COCc1ccc(-c2cn3ccc(N(C)C)cc3n2)cc1 [Example 99]", "%", 37),
    ("CNc1ccn2cc(-c3ccc(C)c(OC)c3)nc2c1 [Example 108]", "%", 26),
    ("Cc1ccc(-c2cn3ccc(NCCF)cc3n2)cc1C [Example 72]", "%", 25),
    ("FCCNc1ccn2cc(-c3ccccc3)nc2c1 [Example 1, 2,2,2-trifluoroacetate]", "%", 40),
    ("FCCOCCOc1ccc(-c2cn3ccc(N4CCC4)cc3n2)cc1 [Example 144]", "%", 27),
    ("Cc1cccc(-c2cn3ccc(N4CCC(CCF)CC4)cc3n2)c1 [Example 85]", "%", 17),
    ("Cc1ccc(-c2cn3ccc(NCCF)cc3n2)cc1 [Example 46]", "%", 27),
    ("CNc1ccn2cc(-c3cccc(OC)c3)nc2c1 [Example 44]", "%", 29),
    ("CNc1ccn2cc(-c3sccc3Br)nc2c1 [Example 111]", "%", 17),
    ("CN(C)c1ccc(-c2cn3ccc(N(C)CCF)cc3n2)cc1 [Example 30]", "%", 23),
    ("CN(C)c1ccn2cc(-c3cccc(OCF)c3)nc2c1 [Example 78]", "%", 53),
    ("CN(CCF)c1ccn2cc(-c3ccccc3)nc2c1 [Example 2]", "%", 50),
    ("CN(C)c1ccn2cc(-c3ccc(OCCF)cc3)nc2c1 [Example 17]", "%", 37),
    ("CNc1ccn2cc(-c3ccco3)nc2c1 [Example 101]", "%", 50),
    ("COc1ccc(-c2cn3ccc(N4CC[C@H](F)C4)cc3n2)cc1 [6 (S)]", "%", 8),
    ("CNc1ccn2cc(-c3cccc(COC)c3)nc2c1 [Example 130]", "%", 40),
    ("CNc1ccn2cc(-c3ccc(Br)cc3)nc2c1 [Example 114]", "%", 33),
    ("CNc1ccn2cc(-c3cccnc3)nc2c1 [Example 126]", "%", 12),
    ("CNc1ccn2cc(-c3ccc(CO)cc3)nc2c1 [Example 89]", "%", 54),
    ("Cc1ccc(-c2cn3ccc(N(C)C)cc3n2)cc1 [Example 27]", "%", 52),
    ("Cc1cccc(-c2cn3ccc(N4CCC(F)CC4)cc3n2)c1 [Example 69]", "%", 22),
    ("COc1ccc(-c2cn3ccc(NC(C)CO)cc3n2)cc1 (stereo not shown) [Example 134]", "%", 21),
    ("COc1ccc(-c2cn3ccc(N(C)C)cc3n2)cc1 [Example 20]", "%", 35),
    ("FCCCOc1ccc(-c2cn3ccc(N4CCC4)cc3n2)cc1 [Example 125]", "%", 32),
    ("CNc1ccn2cc(-c3ccc(Cl)s3)nc2c1 [Example 127]", "%", 26),
    ("CNc1ccn2cc(-c3ccc(SC)cc3)nc2c1 [Example 71]", "%", 34),
    ("FCCOc1ccc(-c2cn3ccc(NC4CC4)cc3n2)cc1 [Example 124]", "%", 39),
    ("COc1cccc(-c2cn3ccc(N4CCC4)cc3n2)c1 [Example 91]", "%", 39),
    ("CNc1ccn2cc(-c3cccc(OCCCF)c3)nc2c1 [Example 139]", "%", 5),
    ("CNc1ccn2cc(-c3ccc(OC)c(OC)c3)nc2c1 [Example 66]", "%", 40),
    ("FC1CCN(c2ccn3cc(-c4ccccc4)nc3c2)CC1 [Example 5]", "%", 21),
    ("FCOc1cccc(-c2cn3ccc(N4CCC4)cc3n2)c1 [Example 107]", "%", 48),
    ("CNc1ccn2cc(-c3cc(C)nn3C)nc2c1 [Example 117]", "%", 18),
    ("COc1ccc(-c2cn3ccc(N4CCCC4)cc3n2)cc1 [Example 11]", "%", 27),
    ("CO[C@@H]1CCN(c2ccn3cc(-c4ccccc4)nc3c2)C1 [Example 43]", "%", 15),
    ("FCCNc1ccn2cc(-c3ccc4c(c3)OCO4)nc2c1 [Example 51]", "%", 35),
    ("Oc1ccc(-c2cn3ccc(NCCF)cc3n2)cc1 [Example 145]", "%", 29),
]
